# target-system: human Kv1.3 (human) (UniProt P22001)
# Sequence (P22001 whole entry): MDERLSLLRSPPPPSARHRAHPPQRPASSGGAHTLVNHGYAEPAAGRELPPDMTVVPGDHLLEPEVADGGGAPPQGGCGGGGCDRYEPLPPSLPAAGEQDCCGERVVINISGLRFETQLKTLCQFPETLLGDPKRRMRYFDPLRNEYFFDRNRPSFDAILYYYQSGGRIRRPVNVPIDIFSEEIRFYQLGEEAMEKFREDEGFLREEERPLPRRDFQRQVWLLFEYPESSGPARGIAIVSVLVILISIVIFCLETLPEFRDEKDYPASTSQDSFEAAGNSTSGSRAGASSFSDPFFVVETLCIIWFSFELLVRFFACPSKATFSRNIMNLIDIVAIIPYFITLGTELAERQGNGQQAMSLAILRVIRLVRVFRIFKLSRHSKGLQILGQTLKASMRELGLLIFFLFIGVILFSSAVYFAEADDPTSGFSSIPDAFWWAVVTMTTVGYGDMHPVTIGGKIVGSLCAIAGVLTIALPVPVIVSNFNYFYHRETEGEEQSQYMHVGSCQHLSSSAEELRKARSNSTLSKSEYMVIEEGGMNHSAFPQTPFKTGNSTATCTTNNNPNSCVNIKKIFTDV
# test-name: cell-based or functional assay
Kv1.3 IC50, QPatch patch clamp listing for selected binders.
Write the value in µM as a bare number.

KB_A12_AnTx-N17A/F32T (antibody, V domains shown) VH: EVQLVESGGGLVRPGGSLRLSCAASGFTFSSYAMSWVRQAPGKGLEWVSAISGSGGSTYYADSVKGRFTISRDNTKNSLYLQMTSLRADDTAFYYCVKDFGPGYGTGWFDYWGPGTLVTVSS VL: QSVLTQPPSVSEAPRQRVTITCSGSSSNIGNNAVNWYQQLPGKAPKLLIYAAGRQKECTGPQHCTNFCRKAKCTHGKCMNRKCKCTNCKANSGVSDRFSAAKSGTSASLAINGLRSEDEADYYCAAWDDSLNGYVFGTGTKLTVLG = 0.11

Moving on to the next binder.
Inquiry: I am curious: what Kv1.3 IC50, QPatch patch clamp value has been reported for KB_A12_HsTx1 (antibody, V domains shown) VH: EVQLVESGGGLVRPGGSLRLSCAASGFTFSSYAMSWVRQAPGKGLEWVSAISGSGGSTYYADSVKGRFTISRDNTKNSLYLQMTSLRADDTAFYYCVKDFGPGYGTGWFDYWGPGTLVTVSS VL: NWYQQLPGKAPKLLIYAAGRASCRTPKDCADPCRKETGCPYGKCMNRKCKCNRCANSGVSDRFSAAKSGTSASLAINGLRSEDEADYYCAAWDDSLNGYVFGTGTKLTVLG ?
Reply text: 0.015
